Values were extracted from PubChem BioAssay.

Record form. Attribute: composite z-score. Fill in for each entry.
Biological target: Neurogenic locus notch homolog protein 2 (Homo sapiens) (UniProt Q04721)
Sequence (Q04721 whole entry, looked up): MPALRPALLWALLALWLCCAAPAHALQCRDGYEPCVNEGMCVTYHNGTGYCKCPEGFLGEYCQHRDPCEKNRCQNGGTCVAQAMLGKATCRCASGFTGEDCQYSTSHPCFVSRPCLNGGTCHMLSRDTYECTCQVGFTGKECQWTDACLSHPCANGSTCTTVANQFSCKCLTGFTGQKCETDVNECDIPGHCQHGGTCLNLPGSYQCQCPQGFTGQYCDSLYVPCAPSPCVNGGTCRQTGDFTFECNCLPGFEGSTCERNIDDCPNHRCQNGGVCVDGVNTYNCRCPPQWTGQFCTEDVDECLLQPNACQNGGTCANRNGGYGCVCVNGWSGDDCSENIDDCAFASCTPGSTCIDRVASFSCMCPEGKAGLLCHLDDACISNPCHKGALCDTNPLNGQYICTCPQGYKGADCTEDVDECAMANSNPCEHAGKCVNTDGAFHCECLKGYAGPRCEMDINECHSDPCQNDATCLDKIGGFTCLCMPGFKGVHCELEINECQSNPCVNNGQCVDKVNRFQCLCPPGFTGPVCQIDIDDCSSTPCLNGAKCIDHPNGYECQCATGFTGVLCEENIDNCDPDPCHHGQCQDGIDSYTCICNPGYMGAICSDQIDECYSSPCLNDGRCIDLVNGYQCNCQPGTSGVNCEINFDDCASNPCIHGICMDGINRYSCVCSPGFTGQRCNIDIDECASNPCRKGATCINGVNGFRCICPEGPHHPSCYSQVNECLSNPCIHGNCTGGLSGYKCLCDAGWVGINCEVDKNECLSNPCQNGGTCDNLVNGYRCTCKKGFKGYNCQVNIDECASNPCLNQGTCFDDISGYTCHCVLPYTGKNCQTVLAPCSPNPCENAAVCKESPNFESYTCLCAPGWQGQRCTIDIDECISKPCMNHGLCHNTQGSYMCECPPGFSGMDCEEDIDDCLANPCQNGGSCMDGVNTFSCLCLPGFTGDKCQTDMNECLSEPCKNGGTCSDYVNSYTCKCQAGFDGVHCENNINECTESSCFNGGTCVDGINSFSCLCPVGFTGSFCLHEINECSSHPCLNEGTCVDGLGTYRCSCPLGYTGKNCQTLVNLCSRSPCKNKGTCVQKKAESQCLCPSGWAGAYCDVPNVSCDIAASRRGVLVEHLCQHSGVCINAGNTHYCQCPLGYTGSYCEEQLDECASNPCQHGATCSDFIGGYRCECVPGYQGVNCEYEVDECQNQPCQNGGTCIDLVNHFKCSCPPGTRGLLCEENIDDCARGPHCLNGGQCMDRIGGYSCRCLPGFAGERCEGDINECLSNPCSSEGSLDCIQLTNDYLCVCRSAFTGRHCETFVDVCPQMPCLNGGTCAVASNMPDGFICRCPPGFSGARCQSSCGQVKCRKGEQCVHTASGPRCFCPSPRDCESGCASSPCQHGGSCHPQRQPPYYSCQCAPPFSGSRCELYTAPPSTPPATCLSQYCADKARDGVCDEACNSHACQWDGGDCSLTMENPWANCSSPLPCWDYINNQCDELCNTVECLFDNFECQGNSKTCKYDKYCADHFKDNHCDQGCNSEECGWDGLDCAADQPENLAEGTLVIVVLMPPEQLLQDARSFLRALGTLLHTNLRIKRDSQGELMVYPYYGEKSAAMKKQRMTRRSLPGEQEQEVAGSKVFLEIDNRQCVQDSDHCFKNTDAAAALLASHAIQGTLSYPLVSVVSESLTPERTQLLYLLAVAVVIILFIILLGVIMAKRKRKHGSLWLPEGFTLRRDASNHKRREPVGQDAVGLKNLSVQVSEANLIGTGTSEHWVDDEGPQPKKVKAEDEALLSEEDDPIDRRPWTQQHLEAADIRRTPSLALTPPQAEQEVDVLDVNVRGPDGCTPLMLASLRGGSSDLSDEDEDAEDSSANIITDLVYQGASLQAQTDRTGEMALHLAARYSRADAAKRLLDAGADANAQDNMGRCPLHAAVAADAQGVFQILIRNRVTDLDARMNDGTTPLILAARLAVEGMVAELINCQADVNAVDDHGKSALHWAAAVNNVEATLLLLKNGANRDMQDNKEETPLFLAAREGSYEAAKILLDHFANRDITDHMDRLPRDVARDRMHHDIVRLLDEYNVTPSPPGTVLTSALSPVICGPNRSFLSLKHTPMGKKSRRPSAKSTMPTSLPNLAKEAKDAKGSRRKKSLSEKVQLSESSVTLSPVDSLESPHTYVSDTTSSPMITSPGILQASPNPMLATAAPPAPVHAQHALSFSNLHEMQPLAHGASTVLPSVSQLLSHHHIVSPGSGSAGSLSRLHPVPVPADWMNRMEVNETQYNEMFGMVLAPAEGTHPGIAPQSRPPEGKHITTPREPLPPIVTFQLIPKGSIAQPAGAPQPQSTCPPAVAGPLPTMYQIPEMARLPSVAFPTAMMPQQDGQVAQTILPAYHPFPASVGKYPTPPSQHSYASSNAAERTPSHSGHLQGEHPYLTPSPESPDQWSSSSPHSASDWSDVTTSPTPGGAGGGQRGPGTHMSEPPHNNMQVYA
Assay: Notch2 binders on small-molecule microarrays, primary screen, biochemical, small-molecule microarray, 635 nm fluorescence, stem cell growth factors (AID 1073)
Conditions: Notch2 binding, higher = more signal
I only need the number, thanks.

IN: Sample COCCOC(=O)N1C(=O)[C@@]2(c3cc(C#CC4=CCCCC4)ccc31)[C@H](C(=O)NC[C@H](O)c1ccccc1)[C@H]1C(=O)O[C@H](c3ccccc3)[C@H](c3ccccc3)N1[C@@H]2c1ccccc1OCCO — what was its composite z-score?
OUT: 1.15

IN: For COCCCNC(=O)[C@@]1(Sc2ccc(C)cc2)CC(=O)N(Cc2cc(C(F)(F)F)cc(C(F)(F)F)c2)[C@@H]1c1ccc(CO)cc1I , what is its reported composite z-score?
OUT: -1.43

IN: Endpoint output: composite z-score of CCCCCCc1nc(-c2cc(C)c(OC)c(C)c2)cc2c1[Si](C(C)C)(C(C)C)O[C@H]2c1ccccc1 . Value?
OUT: -0.209

IN: Given the molecule C[C@@H]1CC[C@H]2C(=O)N3CCC[C@H]3C(=O)N2[C@H]1c1ccc(Br)cc1 , what is its reported composite z-score?
OUT: -0.829

IN: Fill in: composite z-score of COC(=O)Cn1c(C(=O)N2CCCC2)cc2c1C[C@H]1CN(C(=O)c3ccccc3)[C@@](Cc3ccc(OC)cc3)(C(=O)OC)[C@@H]21 is ___
OUT: 1.68

IN: # lookup: composite z-score of COC(=O)c1c(CC[C@@H](CO)NC(=O)N[C@H](Cn2cc(-c3cncn3C)nn2)C(C)C)oc(C(C)=O)c1C(=O)OC
OUT: 0.193

IN: Look up composite z-score: C[C@H]1C2[C@H](Cc3ccccc3)NC(=O)[C@]23C(=O)N[C@H](Cc2ccccc2)C(=O)N[C@@H](Cc2ccccc2)C(=O)NC/C=C\C/C=C/C3[C@@H]2O[C@]12C (some centres not stated)
OUT: 0.155

----------
Target: NADPH oxidase 5 (Homo sapiens) (UniProt Q96PH1)
Sequence (Q96PH1 whole entry, looked up): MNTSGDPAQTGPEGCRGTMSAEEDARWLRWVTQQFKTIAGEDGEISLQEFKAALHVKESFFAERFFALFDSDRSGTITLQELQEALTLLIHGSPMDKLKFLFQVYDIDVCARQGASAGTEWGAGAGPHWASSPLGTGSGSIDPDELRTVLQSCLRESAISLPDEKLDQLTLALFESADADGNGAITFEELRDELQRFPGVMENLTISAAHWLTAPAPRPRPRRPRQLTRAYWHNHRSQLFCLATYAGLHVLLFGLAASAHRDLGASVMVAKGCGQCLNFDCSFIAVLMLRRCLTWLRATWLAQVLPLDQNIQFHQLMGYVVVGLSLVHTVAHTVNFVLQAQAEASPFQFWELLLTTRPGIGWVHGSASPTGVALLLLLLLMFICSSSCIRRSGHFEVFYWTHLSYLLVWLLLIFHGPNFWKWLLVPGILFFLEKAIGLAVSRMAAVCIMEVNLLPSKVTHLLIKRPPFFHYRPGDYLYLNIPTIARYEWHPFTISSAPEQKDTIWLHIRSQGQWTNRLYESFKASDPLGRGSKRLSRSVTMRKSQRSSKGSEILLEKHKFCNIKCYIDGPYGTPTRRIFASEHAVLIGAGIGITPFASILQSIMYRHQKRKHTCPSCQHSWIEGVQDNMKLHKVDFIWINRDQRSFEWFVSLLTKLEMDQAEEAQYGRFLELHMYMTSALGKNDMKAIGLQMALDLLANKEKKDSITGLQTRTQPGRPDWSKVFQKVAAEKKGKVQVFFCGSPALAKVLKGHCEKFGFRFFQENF
Experiment: NOX5-dependent H2O2 signal modulators, primary screen, NOX inhibitor project, cell-based, HEK293-NOX5, Amplex Red fluorescence (AID 1161)
Settings: HEK293-NOX5, ionomycin, 45 min, higher = more signal
measurement-name: z-score
Answer with a bare number; do not write a unit.

IN: Item Cc1ccc(N2C(=O)c3ccccc3[C@](C)(C(=O)NCC(C)C)[C@@H]2c2ccc(CO)cc2)nc1 has what recorded z-score?
OUT: -1.63

IN: For CC(C)CN1C(=O)[C@@]2(Cc3ccccc31)c1ccccc1C(=O)N(C1CCCCC1)[C@H]2c1ccc(CO)cc1 , what is its reported z-score?
OUT: 0.441

IN: Name the recorded z-score for Cc1ccc(S[C@]2(C(=O)NC(C)C)CC(=O)N(C3Cc4ccccc4C3)[C@@H]2c2ccc(CO)cc2)cc1 .
OUT: -0.927

IN: I am curious: what z-score value has been reported for CO[C@H]1O[C@H](CO)[C@@H](OC(=O)Nc2ccc(Oc3ccccc3)cc2)[C@H](OC(=O)Nc2ccccc2-c2ccccc2)[C@H]1OC(=O)Nc1ccccc1-c1ccccc1 ?
OUT: 0.176

IN: Look up z-score for this compound: Cc1ccc([C@@H]2CC=C(C(=O)O)[C@H](c3ccccc3)N2S(=O)(=O)c2ccc(C)cc2)cc1
OUT: -0.96

IN: Field request: z-score | item: CCOC(=O)C[C@H]1[C@H](OC(=O)c2cc3ccccc3oc2=O)[C@@H](NC(=O)c2ccc3ccccc3c2)c2cc(OCCCO)ccc2N1C(=O)c1ccc2ccccc2n1
OUT: 2.17

IN: Dear colleague, I am looking for the recorded z-score of the following compound: CCCC=C(CCC)[C@@H](NC(=O)c1ccc(C(F)(F)F)cc1)c1ccccc1
OUT: -3.65

----------
Experiment: basal MM1S mitochondrial membrane potential changes, profiling panel, cell-based, JC-1 fluorescence, 24 h, 100 nL compound (AID 1170); note: test concentration not given here
Details: higher = more signal
Task for the reader: assign each of the following compounds its reported z-score.

IN: Reported z-score, compound CO[C@H]1COC(=O)[C@H](C)NC(=O)CC=C[C@@H](C)[C@H](NS(=O)(=O)c2ccc(C)cc2)COC(=O)CC=C[C@@H]1C : ____
OUT: 0.753

IN: z-score for C=C(CCCC)C(=O)CC[C@@H](OC(C)=O)c1ccccc1OCCO ?
OUT: 0.93

IN: Give the measured z-score of C=CCC(OC(C)=O)[C@@H]1[C@@H](N(Cc2ccc(-c3cccc(C(F)(F)F)c3)o2)C(=O)Cc2ccc(F)cc2)c2cc(OCCCO)ccc2N1C(=O)c1ccc(-c2ccccc2)cc1 (stereo partly drawn) .
OUT: 0.286

IN: Name the reported z-score value associated with the compound Cc1ccc(S[C@]2(C(=O)O)CC(=O)N(Cc3cc(C(F)(F)F)cc(C(F)(F)F)c3)[C@@H]2c2ccc(CO)cc2I)cc1
OUT: -1.36

IN: If you can, please state the reported z-score value of CN1C(=O)C2C=CC(C(O)C3CC=CCC3)N(Nc3ccccc3)C2C1=O (stereo not drawn) .
OUT: -0.608

IN: Would you mind telling me what z-score value was observed for COc1cccc([C@@H]2[C@@H](C)CC[C@H]3C(=O)N4[C@H](c5cccc(OC)c5)[C@@H](C)CC[C@H]4C(=O)N23)c1 ?
OUT: 1.13

IN: Look up z-score: O=C1c2ccccc2[C@](Cc2ccccc2I)(C(=O)NCC(F)(F)F)[C@H](c2ccc(CO)cc2)N1Cc1ccccc1C(F)(F)F
OUT: 0.415

IN: Fill blank: measured z-score of the compound CN(C)c1ccc(C(O)C2C=CC3C(=O)NC(=O)C3N2Nc2ccc(Cl)cc2Cl)cc1 (stereo not drawn) is ____.
OUT: 0.261

----------
Tested on: Human papillomavirus type 1a E7 protein (residues 1-88)
Assay: HPV1a E7 small-molecule binders, primary screen, biochemical, small-molecule microarray, residues 1-88, 635 nm (AID 1129)
Conditions: small-molecule microarray binding, fluorescence 635 nm; higher = more signal
measurement-name: composite z-score
# output: bare number, no unit

IN: So what does the record say about composite z-score for COc1ccc(NN2C(C(O)c3cc(OC)c(OC)c(OC)c3)C=CC3C(=O)N(C4CCCCC4)C(=O)C32)cc1 (configuration not stated) ?
OUT: 1.21

IN: Give the measured composite z-score of C[C@H]1NC(=O)[C@@H](C)NC(=O)[C@@]23C(=O)N[C@@H](Cc4ccccc4)C2[C@H](C)[C@@]2(C)O[C@H]2C3/C=C/C/C=C\CNC1=O (some centres not stated) .
OUT: -1.84

IN: Data request, read-out composite z-score, for [N-]=[N+]=NCc1ccccc1C[C@@]1(C(=O)O)N=C(c2ccc(OCCCO)cc2)O[C@@H]1c1ccccc1N=[N+]=[N-]
OUT: 1.22

IN: // lookup composite z-score for O=C1c2ccccc2[C@](Cc2ccccc2I)(C(=O)NCC(F)(F)F)[C@H](c2ccc(CO)cc2)N1Cc1ccccc1C(F)(F)F
OUT: 1.22

IN: Could you tell me which composite z-score is on file for C=CCC(OC(C)=O)[C@@H]1[C@@H](N(Cc2ccc(-c3cccc(C(F)(F)F)c3)o2)C(=O)Cc2ccc(F)cc2)c2cc(OCCCO)ccc2N1C(=O)c1ccc(-c2ccccc2)cc1 (some centres not stated) ?
OUT: -0.922

IN: Return reported composite z-score; argument: CCN1C(C)=C(C(=O)OC)[C@@H](c2ccccc2)N2C(=O)[C@](O)(C(=O)OC)[C@@H](c3ccccc3)C(C(=O)c3ccccc3)=C12
OUT: 0.778

IN: Which measured composite z-score value corresponds to CC(c1ccccc1)C(O)C1C=CC2C(=O)N(C)C(=O)C2N1N(c1ccccc1)c1ccccc1 (configuration not stated) ?
OUT: 0.919

----------
I'd be grateful if you could share measured composite z-score for these entries.
Target: Dickkopf-related protein 1 (Homo sapiens) (UniProt O94907)
Sequence (O94907 whole entry, looked up): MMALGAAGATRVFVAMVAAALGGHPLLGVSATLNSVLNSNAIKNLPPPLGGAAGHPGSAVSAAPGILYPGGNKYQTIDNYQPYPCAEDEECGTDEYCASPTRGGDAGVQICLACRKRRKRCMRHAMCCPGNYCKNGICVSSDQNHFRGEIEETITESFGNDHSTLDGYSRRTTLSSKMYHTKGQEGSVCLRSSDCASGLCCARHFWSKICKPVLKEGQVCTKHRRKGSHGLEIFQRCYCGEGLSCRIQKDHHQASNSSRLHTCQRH
Assay: DKK1 binders on small-molecule microarrays, primary screen, biochemical, small-molecule microarray, 635 nm fluorescence scan (AID 1106);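 note: score merges emission near 667 nm with signal to noise over three replicate slides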
Conditions: DKK1 binding, higher = more signal

IN: Request the reported composite z-score associated with Cc1ccc(S[C@]2(C(=O)O)CC(=O)N(Cc3cc(C(F)(F)F)cc(C(F)(F)F)c3)[C@@H]2c2ccc(CO)cc2I)cc1
OUT: -1.38

IN: If you can, please state the reported composite z-score value of CC(c1ccccc1)C(O)C1C=CC2C(=O)N(C)C(=O)C2N1N(c1ccccc1)c1ccccc1 (configuration not stated) .
OUT: -0.623

IN: Consider the molecule O=C1C[C@@](C(=O)NC2CC2)(c2ccc([N+](=O)[O-])cc2)[C@@H](c2ccc(CO)cc2I)N1CC12CC3CC(CC(C3)C1)C2 and give its measured composite z-score.
OUT: 0.266

IN: Entry CCCCCCc1nc(C2CC2)c(C)c2c1[Si](C(C)C)(C(C)C)OC2 : reported composite z-score = ?
OUT: 0.438

IN: Please look up its composite z-score: C=C(COC)C(=O)CC[C@H](OC(=O)c1ccccc1-c1ccccc1C(=O)O)c1cccc(OCCO)c1
OUT: 1.94

IN: Would you kindly share the measured composite z-score for Cc1cc(C)c(C(O)C2C=CC3C(=O)N(C)C(=O)C3N2N2CCCCC2)c(C)c1 (configuration not stated) ?
OUT: 0.384

IN: Item CCCC[C@@H]1C[C@H]1[C@@H](NC(=O)c1cccs1)c1ccc(Cl)cc1 has what recorded composite z-score?
OUT: -1.75

IN: For the molecule shown here, CC(C)[Si]1(C(C)C)OCc2cc(C3CC3)nc(-c3ccccc3)c21 , give the reported composite z-score.
OUT: -0.342

IN: GET /values?readout=composite z-score&item= CCC(=O)[C@]12O[C@@]3([C@@H]4C(=O)OCC[C@@H]41)N(Cc1ccccc1)C(C)=C(C(=O)OC)[C@@H](c1ccccc1)N3C2=O
OUT: -0.0297

IN: Requested field: composite z-score. Item: CCCC/C=C/[C@H]([C@@H](O)Cc1ccccc1)N(CC#Cc1ccccc1)Cc1ccccc1Br
OUT: -2.53

IN: Form field: reported composite z-score of O=C1OCC=C[C@H]2OC34C=CCN(Cc5ccccc5)C(=O)[C@H]3N(CCCCCO)C(=O)[C@@H]4[C@@H]12 (some centres not stated)
OUT: -1.01

IN: Find the recorded composite z-score belonging to COC(=O)[C@@]1(Cc2ccccc2CN=[N+]=[N-])N=C(c2ccc(OCCCO)cc2)O[C@H]1c1ccccc1N=[N+]=[N-] and report it.
OUT: -0.608

IN: Query (molecule): C=C(COC)/C(=C/C[C@@H](OC(C)=O)c1cccc(OCCO)c1)c1cc(C(=O)OC)ccc1OC ; field requested: composite z-score
OUT: -0.0663

IN: Entry CC1CC/C=C\[C@H]2OC34C=CCN(Cn5nnc6ccccc65)C(=O)[C@H]3N(C(C)CO)C(=O)[C@@H]4C2C(=O)O1 (some centres not stated) : reported composite z-score = ?
OUT: -0.936

IN: Given CCC#CCN(Cc1ccccc1Br)[C@H](/C=C/c1ccccc1)[C@@H](O)Cc1ccccc1 , state its recorded composite z-score.
OUT: -1.6

IN: Consider the molecule O=C1OCCC=C[C@H]2OC34C=CCN(Cc5ccccc5)C(=O)[C@H]3N(CCO)C(=O)[C@@H]4C12 (some centres not stated) and give its measured composite z-score.
OUT: -0.46

IN: Any idea what its composite z-score is? The molecule is C[C@]1(C(=O)NCCN2CCOCC2)c2ccccc2C(=O)N(Cc2ccccc2)[C@H]1c1ccc(CO)cc1
OUT: -0.396
